- EXPERIMENTAL_TARGET: Nav1.7 (or SCN9A) channel; HEK cells stably transfected with hSCN9A (Homo sapiens, UniProt Q15858)
- Construct: expressed in transfected cells
- Sequence (Q15858 whole entry): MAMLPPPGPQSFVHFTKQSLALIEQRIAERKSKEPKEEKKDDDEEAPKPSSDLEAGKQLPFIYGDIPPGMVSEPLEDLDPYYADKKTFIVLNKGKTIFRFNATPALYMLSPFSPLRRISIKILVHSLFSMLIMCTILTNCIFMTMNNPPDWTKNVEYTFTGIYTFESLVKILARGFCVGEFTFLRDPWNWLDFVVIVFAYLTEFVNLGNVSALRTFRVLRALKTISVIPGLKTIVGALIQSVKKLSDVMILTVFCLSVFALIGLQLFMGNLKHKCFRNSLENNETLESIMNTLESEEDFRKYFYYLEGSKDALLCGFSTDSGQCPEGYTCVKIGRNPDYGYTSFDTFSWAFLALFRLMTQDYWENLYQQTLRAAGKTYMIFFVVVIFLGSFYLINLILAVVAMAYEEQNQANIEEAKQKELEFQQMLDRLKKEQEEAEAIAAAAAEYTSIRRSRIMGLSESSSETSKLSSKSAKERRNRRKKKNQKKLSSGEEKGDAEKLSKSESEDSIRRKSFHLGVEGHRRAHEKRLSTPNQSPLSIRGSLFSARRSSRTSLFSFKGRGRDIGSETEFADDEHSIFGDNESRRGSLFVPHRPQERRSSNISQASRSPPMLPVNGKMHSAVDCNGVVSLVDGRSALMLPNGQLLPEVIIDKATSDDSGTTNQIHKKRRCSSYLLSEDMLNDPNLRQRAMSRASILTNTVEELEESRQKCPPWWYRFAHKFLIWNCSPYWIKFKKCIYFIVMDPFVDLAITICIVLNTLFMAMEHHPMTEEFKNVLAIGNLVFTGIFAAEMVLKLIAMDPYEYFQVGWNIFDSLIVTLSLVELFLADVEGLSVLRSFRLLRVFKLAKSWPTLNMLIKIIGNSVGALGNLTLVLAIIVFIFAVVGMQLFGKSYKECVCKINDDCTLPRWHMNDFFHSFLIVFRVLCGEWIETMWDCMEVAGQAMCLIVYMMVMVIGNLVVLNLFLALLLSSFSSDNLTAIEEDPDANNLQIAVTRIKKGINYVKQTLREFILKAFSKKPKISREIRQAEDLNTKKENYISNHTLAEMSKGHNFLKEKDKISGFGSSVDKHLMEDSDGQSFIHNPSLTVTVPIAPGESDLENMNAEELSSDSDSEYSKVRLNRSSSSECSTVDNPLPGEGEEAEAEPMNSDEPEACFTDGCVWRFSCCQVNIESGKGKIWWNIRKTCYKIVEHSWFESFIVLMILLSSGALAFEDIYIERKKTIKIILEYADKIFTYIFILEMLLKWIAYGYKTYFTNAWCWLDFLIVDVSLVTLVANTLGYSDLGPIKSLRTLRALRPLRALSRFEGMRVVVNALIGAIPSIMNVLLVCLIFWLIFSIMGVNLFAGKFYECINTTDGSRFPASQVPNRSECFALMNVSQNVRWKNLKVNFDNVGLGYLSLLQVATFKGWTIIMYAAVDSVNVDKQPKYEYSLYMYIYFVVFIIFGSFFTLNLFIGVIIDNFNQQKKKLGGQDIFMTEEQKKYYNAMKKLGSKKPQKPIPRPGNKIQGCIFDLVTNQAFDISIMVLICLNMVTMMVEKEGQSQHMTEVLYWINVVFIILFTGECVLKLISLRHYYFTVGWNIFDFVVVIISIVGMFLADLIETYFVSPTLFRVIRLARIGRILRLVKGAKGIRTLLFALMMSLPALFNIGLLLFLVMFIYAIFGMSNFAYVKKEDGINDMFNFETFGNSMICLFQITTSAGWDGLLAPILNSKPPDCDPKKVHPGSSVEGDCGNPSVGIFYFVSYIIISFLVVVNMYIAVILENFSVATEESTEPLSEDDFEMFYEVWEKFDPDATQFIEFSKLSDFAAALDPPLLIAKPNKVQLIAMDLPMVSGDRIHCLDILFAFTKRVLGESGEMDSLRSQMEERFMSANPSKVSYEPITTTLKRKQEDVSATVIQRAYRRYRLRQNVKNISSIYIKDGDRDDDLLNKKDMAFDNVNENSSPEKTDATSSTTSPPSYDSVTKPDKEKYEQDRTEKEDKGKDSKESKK
- ASSAY_DETAILS: Nav1.7 block, PatchXpress 7000 automated whole-cell voltage clamp, estimated IC50 (EIC50)
- Assay type: cell-based
- CONDITION_CONTEXT: PatchXpress platform; hSCN9A HEK cells held at V1/2 of inactivation; estimated IC50
READOUT_KIND: IC50 (nM)

Completed entries (count: 4):
| COMPOUND | IC50, nM |
| --- | --- |
| O=S(=O)(Nc1nccs1)c1ccc(Oc2cc(Cc3ccc(Cl)cc3)n[nH]2)c(F)c1 [Example 243] | 3860 |
| CC(C)c1nn(-c2ccccc2Cl)cc1Oc1ccc(S(=O)(=O)Nc2ncns2)cc1C#N [Example 67] | 4220 |
| Cn1ccc(-c2cc(Cl)ccc2Oc2ccc(S(=O)(=O)Nc3nccs3)cc2F)n1 [Example 216] | 910 |
| N#Cc1cc(S(=O)(=O)Nc2ncns2)ccc1Oc1cc(Cc2ccc(Cl)cc2)nn1CCO [Example 94] | 2180 |

a. O=S(=O)(Nc1nccs1)c1ccc(Oc2ccc(F)cc2-c2ccnn2CC(F)(F)F)c(F)c1 [Example 225]
b. COc1nsc(NS(=O)(=O)c2ccc(Oc3ccccc3-c3ccccc3)c(C#N)c2)n1 [Example 96]
Lab log: flag the item ( a or b ) with the smaller IC50 figure. Indicate your choice by writing its label.
a

a. O=S(=O)(Nc1nccs1)c1ccc(Oc2cnn(Cc3ccc(Cl)cc3)c2)cc1F [Example 206]
b. CN(C)c1ncc(Oc2ccc(S(=O)(=O)Nc3ncns3)cc2C#N)c(-c2ccccc2F)n1 [Example 14]
c. Cc1cccc(-c2ccc(F)cc2F)c1Oc1ccc(S(=O)(=O)Nc2ncns2)cc1C#N [Example 35]
d. Cn1cc(-c2ccc(Cl)cc2)c(Oc2ccc(S(=O)(=O)Nc3ncns3)cc2C#N)n1 [Example 64]
e. O=S(=O)(Nc1nccs1)c1ccc(Oc2ccc(Cl)cc2-c2ccnn2-c2ccccc2)cc1F [Example 211]
Please list the entries, largest IC50 first. Present the labels in the sequence the task asks for.
c, b, a, d, e
(c: 12700 nM, b: 4300 nM, a: 1190 nM, d: 780 nM, e: 110 nM)

---

- EXPERIMENTAL_TARGET: Nav1.7 (or SCN9A) channel; HEK cells stably transfected with hSCN9A (Homo sapiens, UniProt Q15858)
- Construct: expressed in transfected cells
- ASSAY_DETAILS: Nav1.7 block, PatchXpress 7000 automated whole-cell voltage clamp, estimated IC50 (EIC50)
- Type: cell-based
- CONDITION_CONTEXT: estimated IC50; hSCN9A HEK cells, PatchXpress platform; Examples 815-1040
READOUT_KIND: IC50 (µM)

These recorded examples may help you get a feel for the data.
| COMPOUND | IC50, µM |
| --- | --- |
| O=S(=O)(Nc1ncns1)c1ccc(Oc2ccc(C(F)(F)F)cc2-c2ccnnc2)c(F)c1 | 0.1 |
| O=S(=O)(Nc1nncs1)c1cc(F)c(Oc2ccc(C(F)(F)F)cc2-c2ccnnc2)cc1F | 0.24 |
| Nc1[nH]ncc1-c1cc(Cl)ccc1Oc1ccc(S(=O)(=O)Nc2cscn2)cc1Cl | 0.014 |
| Cc1nsc(NS(=O)(=O)c2cc(Cl)c(Oc3ccc(C(F)(F)F)cc3-c3ccnnc3)cc2F)n1 | 0.025 |
| N#Cc1cc(S(=O)(=O)Nc2ncns2)ccc1Oc1cc(Cl)c(F)cc1-c1ccnnc1 | 0.025 |

P. Nc1cccc(-c2cc(OC(F)(F)F)ccc2Oc2cc(F)c(S(=O)(=O)Nc3ncns3)cc2F)n1
Q. O=S(=O)(Nc1ncns1)c1cc(F)c(Oc2ccc(C(F)(F)F)cc2-c2ccc(Cl)nn2)cc1F
From the recorded data, which exceeds the other in IC50: P or Q ? Your choice should be expressed through its label.
Q
(Q: 0.39 µM, P: 0.023 µM)

---

- EXPERIMENTAL_TARGET: Nav1.7 (or SCN9A) channel; HEK cells stably transfected with hSCN9A (Homo sapiens)
- Construct: expressed in transfected cells
- ASSAY_DETAILS: Nav1.7 block, PatchXpress 7000 automated whole-cell voltage clamp, estimated IC50 (EIC50)
- Assay type: cell-based
- CONDITION_CONTEXT: PatchXpress platform; hSCN9A HEK cells held at V1/2 of inactivation; estimated IC50
READOUT_KIND: IC50 (nM)

| COMPOUND | IC50, nM |
| --- | --- |
| Cc1nc(-c2ccccc2Oc2ccc(S(=O)(=O)Nc3nccs3)c(F)c2)cs1 | 810 |

P. Cc1ccc(Oc2ccc(S(=O)(=O)Nc3ncns3)cc2C#N)c(-c2c(C)cnn2C)c1
Q. N#Cc1cc(S(=O)(=O)Nc2nccs2)ccc1Oc1ccc(-c2ccccc2)cc1
R. N#Cc1cc(S(=O)(=O)Nc2ncns2)ccc1Oc1ccc(F)cc1-c1cc(F)ccc1F
hey, can you rank those molecules up there by IC50? biggest number first please Would you mind listing the labels in the order asked for?
Q, P, R
(Q: 1670 nM, P: 780 nM, R: 380 nM)

---

- EXPERIMENTAL_TARGET: Nav1.7 (or SCN9A) channel; HEK cells stably transfected with hSCN9A (Homo sapiens)
- Construct: expressed in transfected cells
- ASSAY_DETAILS: Nav1.7 block, PatchXpress 7000 automated whole-cell voltage clamp, estimated IC50 (EIC50)
- Assay type: cell-based
- CONDITION_CONTEXT: estimated IC50; hSCN9A HEK cells, PatchXpress platform; Examples 815-1040
READOUT_KIND: IC50 (nM)

Study these solved cases before continuing.
| COMPOUND | EXPERIMENTAL_TARGET | IC50 [nM] |
| --- | --- | --- |
| N#Cc1cc(S(=O)(=O)Nc2ncc(Cl)s2)ccc1Oc1ccc(Cl)cc1-c1ccon1 [Example 990] | Nav1.7 (or SCN9A) channel; HEK cells stably transfected with hSCN9A (Homo sapiens) | 310 |
| O=S(=O)(Nc1ncns1)c1cnc(Oc2ccc(C(F)(F)F)cc2-c2ccnnc2)c(Cl)c1 [Example 974] | Nav1.7 (or SCN9A) channel; HEK cells stably transfected with hSCN9A (Homo sapiens) | 74 |
| N#Cc1cc(S(=O)(=O)Nc2ncns2)ccc1Oc1ccc(Cl)cc1-c1cc(N2CCOCC2)ncn1 [Example 896] | Nav1.7 (or SCN9A) channel; HEK cells stably transfected with hSCN9A (Homo sapiens) | 340 |

I. O=S(=O)(Nc1ncccn1)c1cc(Cl)c(Oc2ccc(Cl)cc2-c2ccnnc2)cc1F [Example 941]
II. O=S(=O)(Nc1ncns1)c1cc(F)c(Oc2ccc(OC(F)F)cc2-c2cn[nH]c2)cc1F [Example 837]
III. Cc1[nH]ncc1-c1cc(Cl)c(F)cc1Oc1ccc(S(=O)(=O)Nc2ncns2)cc1C#N [Example 863]
IV. O=S(=O)(Nc1ccncn1)c1ccc(Oc2ccc(Cl)cc2-c2ccnnc2)c(Cl)c1 [Example 847]
V. N#Cc1cc(S(=O)(=O)Nc2nncs2)ccc1Oc1ccc(Cl)cc1-c1ccnc(N)c1 [Example 818]
Hey, can you sort those compounds up there by IC50, smallest first? Field: ranking. Enter the labels in the order requested.
III, II, I, IV, V
(III: 3.1 nM, II: 5.8 nM, I: 72 nM, IV: 130 nM, V: 320 nM)

P. O=S(=O)(Nc1ncns1)c1ccc(Oc2ccc(C(F)(F)F)cc2-c2ccnnc2)c(Cl)c1 [Example 928]
Q. COC(=O)c1cccc(-c2cc(Cl)ccc2Oc2ccc(S(=O)(=O)Nc3ncns3)cc2C#N)c1 [Example 1003]
R. N#Cc1cc(S(=O)(=O)Nc2ccc(F)cn2)ccc1Oc1ccc(F)cc1C1CC1 [Example 1004]
S. N#Cc1cc(S(=O)(=O)Nc2ncns2)ccc1Oc1ccc(Cl)cc1C1CCOCC1 [Example 836]
T. Cc1nsc(NS(=O)(=O)c2cc(Cl)c(Oc3ccc(Cl)cc3-c3c[nH]nc3N)cc2F)n1 [Example 872]
# sort list by recorded IC50, greatest to least Answer by listing the labels in the requested order.
R, S, Q, T, P
(R: 7100 nM, S: 40 nM, Q: 20 nM, T: 12 nM, P: 3.6 nM)

---

- EXPERIMENTAL_TARGET: Nav1.7 (or SCN9A) channel; HEK cells stably transfected with hSCN9A (Homo sapiens, UniProt Q15858)
- Construct: expressed in transfected cells
- ASSAY_DETAILS: Nav1.7 block, PatchXpress 7000 automated whole-cell voltage clamp, estimated IC50 (EIC50)
- Format: cell-based
- CONDITION_CONTEXT: estimated IC50; hSCN9A HEK cells, PatchXpress platform; Examples 815-1040
READOUT_KIND: IC50 (nM)

// known answers, use as guide
| MOLECULE | UNIT_ABBREVIATION | IC50 |
| --- | --- | --- |
| N#Cc1cc(S(=O)(=O)Nc2cscn2)ccc1Oc1ccc(C(F)(F)F)cc1-c1ccnn1C1CNC1 [Example 969] | nM | 4.1 |
| Cc1cc(S(=O)(=O)Nc2ncns2)c(F)cc1Oc1ccc(C(F)(F)F)cc1-c1ccnnc1 [Example 978] | nM | 4.6 |
| Nc1cc(-c2cc(F)ccc2Oc2cc(F)c(S(=O)(=O)Nc3ncccn3)cc2Cl)ccn1 [Example 949] | nM | 87 |

I. Cc1nocc1-c1cc(Cl)ccc1Oc1ccc(S(=O)(=O)Nc2ncns2)cc1C#N [Example 961]
II. O=S(=O)(Nc1nncs1)c1cc(Cl)c(Oc2ccc(Cl)c(F)c2-c2ccnnc2)cc1F [Example 956]
III. O=S(=O)(Nc1ncns1)c1cc(F)c(Oc2ccc(Cl)cc2-c2ccnc(CN3CCC3)c2)cc1F [Example 838]
Ranking field: IC50; order: falling. Answer by listing the labels in the requested order.
II, I, III

1. N#Cc1cc(S(=O)(=O)Nc2ncns2)ccc1Oc1ccc(Cl)cc1-c1ccon1 [Example 880]
2. O=S(=O)(Nc1nncs1)c1cc(Cl)c(Oc2cc(F)c(OC(F)(F)F)cc2-c2ccnnc2)cc1F [Example 963]
Which has the higher IC50, 1 or 2 ? Answer by stating the label of the chosen item.
1
(1: 110 nM, 2: 15 nM)
